target: T1, PCSK9Δhelix (human, UniProt Q8NBP7 31-152; Q8NBP7 168-692); test: SPR, Method 3 (SensiQ Pioneer FE, target amine-coupled, gradient injection)
T1 construct: Made by TEV cleavage of human PCSK9 M1-Q692 with an engineered TEV site; The new N-terminus of the catalytic domain is S-A168; also called His-PCSK9Δhelix; PCSK9 lacking the P' helix
T1 sequence (Q8NBP7 31-152, stated change not applied, chain 1 of 2): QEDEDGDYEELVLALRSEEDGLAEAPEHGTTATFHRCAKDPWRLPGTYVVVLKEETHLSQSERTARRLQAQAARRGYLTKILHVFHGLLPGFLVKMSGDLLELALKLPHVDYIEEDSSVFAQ
T1 sequence (Q8NBP7 other isoform, or with tags, fused parts or gaps mutant, chain 2 of 2): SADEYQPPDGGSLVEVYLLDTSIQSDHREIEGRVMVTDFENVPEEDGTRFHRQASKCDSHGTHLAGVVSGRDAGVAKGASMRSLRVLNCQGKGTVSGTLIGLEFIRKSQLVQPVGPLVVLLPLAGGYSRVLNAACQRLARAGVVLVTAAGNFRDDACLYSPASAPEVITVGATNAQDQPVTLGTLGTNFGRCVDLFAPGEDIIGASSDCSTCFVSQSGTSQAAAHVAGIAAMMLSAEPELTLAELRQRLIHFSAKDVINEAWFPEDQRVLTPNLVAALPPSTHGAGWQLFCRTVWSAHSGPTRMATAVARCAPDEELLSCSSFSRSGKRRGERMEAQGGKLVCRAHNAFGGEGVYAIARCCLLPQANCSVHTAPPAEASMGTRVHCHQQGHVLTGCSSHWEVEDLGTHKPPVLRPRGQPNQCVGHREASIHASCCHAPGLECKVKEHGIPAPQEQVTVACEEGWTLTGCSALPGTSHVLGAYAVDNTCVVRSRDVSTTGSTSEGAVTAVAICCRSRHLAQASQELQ
Bridge positions count the residues as written; N and C are the ends.
Readings of Kd for the listed binders
Kindly answer with a numeric value in nM, unit omitted.

{"Binder": "Ac-CRLPWNLQRIGLPC-NH2 (disulfide 1-14 (inferred), Two Cys, disulfide-cyclized) [Compound 32]", "Unit Annotation": "nM", "Recorded Result": 210}
{"Binder": "Ac-CFIPWNLQRIGLLC-NH2 (disulfide 1-14 (inferred), Two Cys, disulfide-cyclized) [Compound 31]", "Unit Annotation": "nM", "Recorded Result": 3010}

-- ask # return recorded Kd for input Ac-FCLWNLKRIGAQCWF-NH2 (disulfide 2-13 (inferred), Two Cys, disulfide-cyclized) [Compound 96]
-- reply 2500
